measured_target: TNFα / TNFα receptor (TNFα R1/Fc) (Homo sapiens, UniProt P01375)
Construct: purchased R&D Systems
Sequence (P01375 77-233 limits assumed, species assumed): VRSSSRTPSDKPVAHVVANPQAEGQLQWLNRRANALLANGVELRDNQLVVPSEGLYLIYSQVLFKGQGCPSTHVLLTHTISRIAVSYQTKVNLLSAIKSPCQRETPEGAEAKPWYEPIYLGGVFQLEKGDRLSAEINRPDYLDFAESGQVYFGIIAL
protocol_notes: Inhibition of binding of TNFα to the TNFα receptor (plate ELISA competition)
settings: Table 2; read-out: Activity (IC50, inhibition of TNFα binding to TNFα R1/Fc)
Numbered stars: 1 amine (or outer) side, 2 acyl side, 3 side chain; on linkers, the order of the positions; unused ones are H or OH. Bridge positions count the residues as written; N and C are the ends. Square brackets hold non-standard residues; d marks the D form. Peptide text beside a SMILES is read from it. dPhe(4-CF3) = N[C@H](Cc1ccc(C(F)(F)F)cc1)C(=O)O; Bip = N[C@@H](Cc1ccc(-c2ccccc2)cc1)C(=O)O; Phe(4-NH2) = Nc1ccc(C[C@H](N)C(=O)O)cc1; d2Thi = N[C@H](Cc1cccs1)C(=O)O; Suc = O=C(CCC(=O)[*:2])[*:1]
metric: IC50

O=C1CCC(=O)N[C@H](Cc2cccs2)C(=O)N[C@@H](Cc2ccc(-c3ccccc3)cc2)C(=O)N[C@@H](CO)C(=O)N[C@H](C(=O)O)Cc2ccc(cc2)N1 [Compound 60] ([d2Thi][Bip]S[Phe(4-NH2)]-OH; linker N-4 via Suc) : > 100 µM
COc1ccc(C[C@@H]2NC(=O)[C@@H](Cc3ccc(-c4ccccc4)cc3)NC(=O)[C@H](Cc3cccs3)NC(=O)COc3ccc(cc3)C[C@@H](C(=O)O)NC2=O)cc1 : 10 to 30 µM
CC(C)(NC(=O)[C@@H]1Cc2ccc(cc2)NC(=O)[C@H](O)[C@@H](O)C(=O)N[C@H](Cc2cccs2)C(=O)N[C@@H](Cc2ccc(-c3ccccc3)cc2)C(=O)N[C@H](Cc2ccccc2)C(=O)N1)C(=O)O : > 100 µM

# get_value(readout='IC50', item= O=C1CCC(=O)N[C@H](Cc2ccc(C(F)(F)F)cc2)C(=O)N[C@@H](Cc2ccc(-c3ccccc3)cc2)C(=O)N[C@H](Cc2ccccc2)C(=O)N[C@H](C(=O)O)Cc2ccc(cc2)N1 [Compound 118] ([dPhe(4-CF3)][Bip][dF][Phe(4-NH2)]-OH; linker N-4 via Suc) )
10 to 30 µM
